The reported measurements were obtained from paper PMC8117066.

Reported IC50 values for a set of compounds
# measured.on: Dopamine transporter (DAT) (Mus musculus, UniProt Q61327, T53A)
# Sequence (Q61327 whole entry T53A): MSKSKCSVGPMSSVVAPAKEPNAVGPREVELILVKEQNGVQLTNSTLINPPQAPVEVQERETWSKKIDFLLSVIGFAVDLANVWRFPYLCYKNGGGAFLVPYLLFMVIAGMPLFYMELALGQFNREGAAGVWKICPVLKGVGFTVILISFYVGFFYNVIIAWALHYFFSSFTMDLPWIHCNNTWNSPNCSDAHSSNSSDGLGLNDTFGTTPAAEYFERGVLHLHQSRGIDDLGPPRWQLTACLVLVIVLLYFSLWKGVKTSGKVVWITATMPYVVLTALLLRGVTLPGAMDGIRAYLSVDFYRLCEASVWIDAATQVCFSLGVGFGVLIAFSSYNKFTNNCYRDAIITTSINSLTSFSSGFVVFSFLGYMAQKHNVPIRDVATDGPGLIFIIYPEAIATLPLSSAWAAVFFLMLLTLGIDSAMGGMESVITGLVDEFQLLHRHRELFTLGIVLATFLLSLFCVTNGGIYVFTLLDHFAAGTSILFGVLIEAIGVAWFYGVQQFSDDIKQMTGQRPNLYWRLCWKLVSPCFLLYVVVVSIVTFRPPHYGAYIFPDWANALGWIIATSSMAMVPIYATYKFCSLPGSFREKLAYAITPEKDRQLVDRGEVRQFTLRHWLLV
# protocol: inhibition of [3H]DA uptake in mouse striatal synaptosomes
measured.parameter: IC50 (nM)

INSERT INTO assay_data (compound, measured_parameter, result) VALUES
  ('COC(=O)[C@H]1[C@@H](OC(=O)c2ccccc2)C[C@@H]2CC[C@H]1N2C', 'IC50', 1270),
  ('CN[C@@H](C)Cc1ccccc1', 'IC50', 262),
  ('CC(N)Cc1ccccc1 (stereo not drawn)', 'IC50', 198);

###

# measured.on: Dopamine transporter (DAT) (Mus musculus)
# protocol: inhibition of [3H]DA uptake in mouse striatal synaptosomes
measured.parameter: IC50 (µM)

INSERT INTO assay_data (compound, result) VALUES
  ('CC(N)Cc1ccccc1 (stereo not drawn)', 0.183),
  ('COC(=O)[C@H]1[C@@H](OC(=O)c2ccccc2)C[C@@H]2CC[C@H]1N2C', 0.268),
  ('CN[C@@H](C)Cc1ccccc1', 0.28);
